Entries and their IC50 values follow.
# test-target: T1, αvβ3 integrin on cells (U87MG glioblastoma cells; K562-αvβ3 cells) (UniProt P06756 31-1048; P05106 27-788)
# T1 construct: whole, on cells; also called cell surface αvβ3 integrin
# T1 sequence (P06756 31-1048, chain 1 of 2): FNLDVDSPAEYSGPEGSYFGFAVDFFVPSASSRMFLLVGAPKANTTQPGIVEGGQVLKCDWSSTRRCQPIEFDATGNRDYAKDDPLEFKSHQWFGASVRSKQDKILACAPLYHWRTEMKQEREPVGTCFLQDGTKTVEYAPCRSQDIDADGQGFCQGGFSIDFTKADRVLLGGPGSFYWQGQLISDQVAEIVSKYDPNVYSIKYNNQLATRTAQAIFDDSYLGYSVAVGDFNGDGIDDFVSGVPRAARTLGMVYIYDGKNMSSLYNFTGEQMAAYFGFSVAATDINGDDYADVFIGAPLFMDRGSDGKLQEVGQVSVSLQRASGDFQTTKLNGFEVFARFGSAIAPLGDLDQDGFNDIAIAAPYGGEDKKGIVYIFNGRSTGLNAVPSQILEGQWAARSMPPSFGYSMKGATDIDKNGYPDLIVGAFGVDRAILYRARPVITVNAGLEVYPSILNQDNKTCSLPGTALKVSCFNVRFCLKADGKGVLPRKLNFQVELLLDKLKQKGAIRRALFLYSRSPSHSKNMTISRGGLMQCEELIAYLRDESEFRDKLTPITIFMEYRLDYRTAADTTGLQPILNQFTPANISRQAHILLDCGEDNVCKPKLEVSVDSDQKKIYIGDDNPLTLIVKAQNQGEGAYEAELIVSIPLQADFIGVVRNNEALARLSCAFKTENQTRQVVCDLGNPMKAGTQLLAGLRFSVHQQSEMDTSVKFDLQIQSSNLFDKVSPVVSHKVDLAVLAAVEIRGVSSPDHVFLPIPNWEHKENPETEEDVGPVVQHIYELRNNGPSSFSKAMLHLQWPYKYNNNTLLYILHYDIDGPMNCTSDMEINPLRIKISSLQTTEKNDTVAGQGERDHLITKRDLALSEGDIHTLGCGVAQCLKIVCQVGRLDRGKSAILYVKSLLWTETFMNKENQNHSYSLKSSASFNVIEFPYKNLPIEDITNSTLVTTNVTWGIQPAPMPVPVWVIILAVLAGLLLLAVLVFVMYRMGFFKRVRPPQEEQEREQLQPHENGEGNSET
# T1 sequence (P05106 27-788, chain 2 of 2): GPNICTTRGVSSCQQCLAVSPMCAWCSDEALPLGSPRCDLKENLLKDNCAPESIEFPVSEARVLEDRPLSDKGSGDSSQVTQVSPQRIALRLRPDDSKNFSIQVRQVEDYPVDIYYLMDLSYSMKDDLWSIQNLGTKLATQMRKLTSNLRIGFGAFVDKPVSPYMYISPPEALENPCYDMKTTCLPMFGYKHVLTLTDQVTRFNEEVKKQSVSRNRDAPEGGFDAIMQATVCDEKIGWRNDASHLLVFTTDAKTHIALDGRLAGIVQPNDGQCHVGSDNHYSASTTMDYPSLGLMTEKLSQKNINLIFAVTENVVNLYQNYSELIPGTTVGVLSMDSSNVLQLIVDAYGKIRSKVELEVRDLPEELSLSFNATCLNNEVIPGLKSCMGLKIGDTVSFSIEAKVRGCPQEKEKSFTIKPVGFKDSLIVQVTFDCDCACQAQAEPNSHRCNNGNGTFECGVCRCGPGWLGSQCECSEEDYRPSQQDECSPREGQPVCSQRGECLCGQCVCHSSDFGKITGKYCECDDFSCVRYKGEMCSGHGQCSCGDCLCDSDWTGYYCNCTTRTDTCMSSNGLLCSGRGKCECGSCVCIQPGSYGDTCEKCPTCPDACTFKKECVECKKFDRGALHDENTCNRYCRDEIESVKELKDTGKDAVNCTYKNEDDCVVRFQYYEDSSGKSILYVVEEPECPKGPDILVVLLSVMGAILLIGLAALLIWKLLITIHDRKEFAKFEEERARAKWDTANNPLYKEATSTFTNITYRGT
# test-description: competition with ^125I-echistatin on U87MG cells (also express αvβ5, α5β1); unlabeled peptide
Return type: number; implicit unit nM.

Some solved cases for reference:
binder	readout-number
GCPRPRGDNPPLTCSQDSDCLAGCVCGPNGFCG (also called knottin peptide 2.5F; RGD-miniprotein 2.5F) [Miniprotein 2.5F (synthetic, soluble)]	26
GCPQGRGDWAPTSCSQDSDCRAGCVCGPNGFCG (also called knottin peptide 2.5D; RGD-miniprotein 2.5D) [Miniprotein 2.5D (synthetic, soluble)]	16
GCVTGRGDSPASSCSQDSDCLAGCVCGPNGFCG (also called FN-RGD2; RGD-EETI #3) [Loop-grafted FN-RGD (synthetic, soluble)]	370

# evaluate next
Using the record for GCTIGRGDWAPSECSQDSDCLAGCVCGPNGFCG (also called RGD-miniprotein 1.5B) [Miniprotein 1.5B (synthetic, soluble)] , report its IC50. 13
